Reference source: patent US20120316071A1

# measuredTarget: T1, Recombinant Human DLL4 (delta-like protein 4) (human, UniProt Q9NR61 27-524)
# T1 construct: Bought recombinant human DLL4 (R&D Systems Cat#1506-D4/CF); also called rHuman DLL4
# protocolSummary: ECL (MSD) binding assay, immobilised DLL4, 10 nM Fab;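 further: fab binding read as electrochemiluminescence via a TAG-labelled detection antibody, 1 h incubations at 20 °C, antigen signal compared with each well's blank, ratio of at least 4 scored as binder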
resultType: ECL Signal [10 nM Fab]

Q: Look at this binder and give its reported ECL Signal [10 nM Fab]. Fab VH5-51_IGHD5-18*01>3_IGHJ4*01 G100K/G104T & V3-4_IGLJ1*01 V91C (Fab, V domains shown, Fab; expressed with CH1 (His and Flag tags) and lambda CL from the expression plasmids; also called H:KT & V91C) VH: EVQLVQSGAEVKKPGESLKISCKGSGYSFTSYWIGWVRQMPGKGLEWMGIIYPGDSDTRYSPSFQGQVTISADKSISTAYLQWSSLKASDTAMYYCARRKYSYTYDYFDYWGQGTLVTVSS VL: QTVVTQEPSFSVSPGGTVTLTCGLSSGSVSTSYYPSWYQQTPGQAPRTLIYSTNTRSSGVPDRFSGSILGNKAALTITGAQADDESDYYCCLYMGSGISYVFGTGTKVTVL
A: 38300

Q: Look at this binder and give its reported ECL Signal [10 nM Fab]. Fab VH5-51_IGHD5-18*01>3_IGHJ4*01 G100K/G104T & V3-4_IGLJ1*01 M94F (Fab, V domains shown, Fab; expressed with CH1 (His and Flag tags) and lambda CL from the expression plasmids; also called H:KT & M94F) VH: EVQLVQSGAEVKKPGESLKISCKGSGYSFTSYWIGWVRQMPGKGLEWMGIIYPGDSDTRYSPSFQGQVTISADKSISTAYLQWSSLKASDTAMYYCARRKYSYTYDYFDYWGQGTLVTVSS VL: QTVVTQEPSFSVSPGGTVTLTCGLSSGSVSTSYYPSWYQQTPGQAPRTLIYSTNTRSSGVPDRFSGSILGNKAALTITGAQADDESDYYCVLYFGSGISYVFGTGTKVTVL
A: 26300

Q: Look at this binder and give its reported ECL Signal [10 nM Fab]. Fab VH5-51_IGHD5-18*01>3_IGHJ4*01 G100K/G104T & V3-4_IGLJ1*01 M94N (Fab, V domains shown, Fab; expressed with CH1 (His and Flag tags) and lambda CL from the expression plasmids; also called H:KT & M94N) VH: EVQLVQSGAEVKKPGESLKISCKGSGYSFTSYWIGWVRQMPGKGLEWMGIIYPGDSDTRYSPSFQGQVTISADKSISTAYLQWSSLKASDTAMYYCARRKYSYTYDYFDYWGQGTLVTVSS VL: QTVVTQEPSFSVSPGGTVTLTCGLSSGSVSTSYYPSWYQQTPGQAPRTLIYSTNTRSSGVPDRFSGSILGNKAALTITGAQADDESDYYCVLYNGSGISYVFGTGTKVTVL
A: 51300
